test system: SK-MEL-28 melanoma; assay: NCI-60 one-dose screen, 48 h; conditions: 10 µM unless noted
Compounds without any hit were thinned out: in the full panel of roughly 83,000, 20% have a hit. The source made the active and inactive calls. Rule for the calls: active = growth percent below 10; inactive = the rest.
Result category, one only: active, inactive

# MOLECULE, CLASS ASSIGNMENT
rows = [
    ("CCCc1cc(C(N)=S)ccn1", "inactive"),
    ("C=C(C)[C@@H]1CC[C@]2(C(=O)O)CC[C@]3(C)[C@H](CC[C@@H]4[C@@]5(C)CCC(N)C(C)(C)[C@@H]5CC[C@]43C)[C@@H]12 (some centres undefined)", "active"),
    ("CC1=C2[C@@H](CC1)[C@]1(C)O[C@@](C(C)C)(C[C@H]1OC(=O)CO)[C@H]2OC(=O)C1CC1c1ccccc1 (some centres undefined)", "inactive"),
    ("N=C(N)c1ccc(-c2ccc(-c3ccc(Cl)c(Cl)c3)s2)cc1", "inactive"),
    ("CCN(CC)CC#CCOC(=O)[C@]1(C)CCC[C@]2(C)c3ccc(C(C)C)cc3CC[C@@H]12", "inactive"),
    ("C=C[C@]1(C)C=C2CC[C@@H]3C(C)(C)C(=O)CC[C@@]3(C)[C@@H]2CC1", "inactive"),
    ("COC(=O)c1[nH]nc(OC)c1C1(C(C#N)c2nc3ccccc3s2)CCCc2ccccc21 (centres undefined)", "inactive"),
    ("COc1ccc(/C=C/C(=O)c2cc3c(N)c(C(=O)Nc4ccccc4Cl)sc3nc2C)cc1", "inactive"),
    ("Cn1c(=O)c2c(nc(Nc3cc(=O)[nH]c(=O)[nH]3)n2Cc2ccccc2)n(C)c1=O", "inactive"),
    ("Nc1nc(Nc2cccnc2)sc1C(=O)c1ccccc1F", "inactive"),
]

Outcome? COc1c(O)c(O)cc2c3c(oc12)CC(c1ccc2c(c1)OCO2)CC3=O (centres undefined) inactive

Would you mind doing `CCCCCCNC(=O)Oc1ccc(/C(=C(/CC)Cc2ccccc2)c2ccc(OCCCN(C)C)cc2)cc1` as well? inactive

Would you mind doing `O=C(Nc1ccc(F)cc1)c1cc2cc(Nc3nc(-c4ccccc4)nc4ccccc34)ccc2oc1=O` as well? inactive

Would you mind doing `O=C(Nc1ccccc1C(=O)N/N=C(\c1ccccc1)c1ccccn1)c1ccccc1` as well? inactive

Would you mind doing `O=C1C=C(Nc2ccccc2)c2ncccc2C1=O` as well? active

Would you mind doing `O=C(Nc1ncc(Cc2cccc(C(F)(F)F)c2)s1)c1ccc(-n2cnnn2)cc1` as well? inactive

Would you mind doing `COc1ccc(NC(=O)Nc2ccccc2CNc2nc(Nc3ccc(OCCN4CCCC4)cc3)ncc2Cl)cc1` as well? active

Would you mind doing `COc1ccc2c(c1)oc1c(C)c3c(c(C)c12)C(=O)N(Nc1ccccc1)C3=O` as well? inactive

Would you mind doing `COc1cc(/C=C2\C(=O)N(CCCCn3c4ccccc4c(=O)c4ccccc43)c3ccccc32)cc(OC)c1O` as well? inactive

====

system: IGROV1 ovarian; test: NCI-60 one-dose screen, 48 h (100 = growth as untreated, 0 = no growth, -100 = all killed); settings: 10 µM unless noted
This is part of a sample that, as a whole, favours compounds with a hit. Of some 83,000 tested, about 20% had one in any assay.
Values of growth greater than or equal to 50% map to rule met; values below map to rule not met.

Solved cases (4 shown):
# COMPOUND, CLASS ASSIGNMENT
measured = [
    ("O=C(Oc1ccc(CO[N+](=O)[O-])cc1)c1ccccc1", "rule not met"),
    ("Nc1c(C(=O)Nc2ccncc2)sc2nc3c(cc12)CCCCCCCC3", "rule not met"),
    ("Cc1nn(-c2nc(-c3cc4ccccc4oc3=O)cs2)c(C)c1N=Nc1ccccc1", "rule met"),
    ("COc1ccc(Oc2nc(Nc3ccc(N4CCOCC4)cc3)ncc2NC(=O)c2cc(OC)cc(OC)c2)cc1", "rule met"),
]

Reported growth at or above 50%? `CC[C@@H]1NC(=O)[C@H]([C@H](O)[C@H](C)C/C=C/c2ccc(CN3C(=O)C(C)=C(C)C3=O)cc2)N(C)C(=O)[C@H](C(C)C)N(C)C(=O)[C@H](CC(C)C)N(C)C(=O)[C@H](CC(C)C)N(C)C(=O)[C@@H](C)NC(=O)[C@H](C)NC(=O)[C@H](CC(C)C)N(C)C(=O)[C@H](C(C)C)NC(=O)[C@H](CC(C)C)N(C)C(=O)CN(C)C1=O` rule met

Would you mind doing `COc1cc(/C=C2\CCC/C(=C\c3cc(CN4CCCC4)c(O)c(OC)c3)C2=O)cc(CN2CCCC2)c1O` as well? rule met

Would you mind doing `Cn1cc(-c2nc3c(F)cc4[nH]ncc4c3c3c2CCCC3)c(C(F)F)n1` as well? rule met

====

Test system: RPMI-8226 leukemia
Test: NCI-60 one-dose screen, 48 h (100 = growth as untreated, 0 = no growth, -100 = all killed)
Details: 10 µM unless noted
Procedure: Growth inhibition of the RPMI-8226 human tumor cell line is measured as a screen for anti-cancer activity. Cells are grown in 96 well plates and exposed to the test compound for 48 hours. Compounds are tested at a single concentration, which is 10^-5 M for most compounds. The reported endpoint is percent growth (GI% or GIPRCNT), where numbers from 0 - 100% represent growth inhibition, and numbers from -100% - 0 represent cell death. For example, a value of 40 represents 60% growth inhibition. […]
Compounds without any hit were thinned out: in the full panel of roughly 83,000, 20% have a hit.
Strictly below 80% in growth: yes. Otherwise: no.

Solved cases (6 shown):
# MOLECULE, CLASS ASSIGNMENT
records = [
    ("CNC(=O)c1cc(Oc2ccc3nc(NC(=O)Nc4ccc(C(F)(F)F)cc4)sc3c2)ccn1", "yes"),
    ("O=C1OCC2=C1C(c1cccc(C(F)(F)F)c1)c1cc3c(cc1N2CCO)CCC3 (stereo not given)", "yes"),
    ("Clc1ccc(CNc2ccc3nc(CCC4CCCCC4)[nH]c3c2)cc1", "yes"),
    ("Fc1ccc(NC(c2ccc(F)cc2)C2CCN(CCCCc3ccccc3)CC2)cc1 (stereo not given)", "yes"),
    ("COc1cc2cc(NCc3ccncc3)nc(C)c2cc1OC", "no"),
    ("CCN(CC)/C([O-])=c1\\cccc\\c1=C1\\N=C(c2ccccc2)N=C1[n+]1ccc(-c2ccccc2)cc1", "no"),
]

Is it true that growth reported for `O=C1/C(=C/c2ccc(F)c(F)c2)CN(C(=O)C(Cl)Cl)C/C1=C\c1ccc(F)c(F)c1` is less than 80%? yes

Would you mind doing `Cc1cc2nc(C(Cl)Cl)nc(-c3ccc(Cl)cc3)n2n1` as well? yes

Would you mind doing `Clc1ccc(/C=N\N2CCCCCC2)cc1` as well? no

====

test system: SNB-75 CNS; test: NCI-60 one-dose screen, 48 h; settings: 10 µM unless noted
The panel holds about 83,000 compounds, 20% with a hit somewhere; the sample as a whole holds those more often. Active and inactive are the calls of the source. The calls were made as follows: active = growth percent below 10; inactive = the rest.
Result category, one only: true (active), false (inactive)

Solved cases (4 shown):
# RECORD SMILES, CLASS ASSIGNMENT
measured = [
    ("C#CCn1cnc2cnc(Nc3cccc(NC(=O)CCl)c3)nc21", "true"),
    ("CCCCSc1ccc2nc(-c3ccc(OCCCN=C(N)N)cc3)cn2c1", "false"),
    ("CC(=O)c1nn(-c2ccccc2)/c(=N/N=Cc2cn(-c3ccccc3)nc2-c2cc3ccccc3oc2=O)s1", "false"),
    ("COc1ccccc1/C=C1\\COc2ccc(O)cc2C1=O", "false"),
]

Outcome? `COc1ccc(Oc2nc(Nc3ccc(N4CCOCC4)cc3)ncc2NC(=O)c2cc(OC)cc(OC)c2)cc1` false

====

test system: RXF 393 renal; experiment: NCI-60 one-dose screen, 48 h; settings: 10 µM unless noted
This is part of a sample that, as a whole, favours compounds with a hit. Of some 83,000 tested, about 20% had one in any assay. Active and inactive are the calls of the source. How the source made its calls: active means growth percent below 10; inactive means the rest.
Result category, one only: True (active), False (inactive)

# COMPOUND, CLASS ASSIGNMENT
data = [
    ("COc1ccc(C(=O)N/N=C/c2ccc(O)cc2O)cc1Nc1ccnc(C(F)(F)F)c1", "False"),
]

Now for another entry.
Outcome? `CCCCCCCCCCCCCCCCCCOc1cccc(CC(=O)OCC[N+](CC)(CC)CC)c1` True

====

tested on: UACC-62 melanoma; experiment: NCI-60 one-dose screen, 48 h (100 = growth as untreated, 0 = no growth, -100 = all killed); details: 10 µM unless noted
This is part of a sample that, as a whole, favours compounds with a hit. Of some 83,000 tested, about 20% had one in any assay.
METRIC: growth (%)
Number only, in %; omit the unit.

# COMPOUND, UNITS LABEL, growth
rows = [
    ("CCCCC1=C(Br)C(=O)c2nc(C)ccc2C1=O", "%", 84.9),
]

Value lookup for growth; key = `CCN(C(=O)N1CCN(c2cc3c(cc2F)c(=O)c(C(=O)O)cn3C2CC2)CC1)c1nc(-c2ccccc2)cs1` 13.1

Would you mind doing `Nc1n[nH]c2cccc(C#Cc3cccc(NC(=O)c4ccc(N5CCOCC5)c(C(F)(F)F)c4)c3)c12` as well? -5.9
